systemName: UniProtKB P08172
Sequence (P08172 whole entry): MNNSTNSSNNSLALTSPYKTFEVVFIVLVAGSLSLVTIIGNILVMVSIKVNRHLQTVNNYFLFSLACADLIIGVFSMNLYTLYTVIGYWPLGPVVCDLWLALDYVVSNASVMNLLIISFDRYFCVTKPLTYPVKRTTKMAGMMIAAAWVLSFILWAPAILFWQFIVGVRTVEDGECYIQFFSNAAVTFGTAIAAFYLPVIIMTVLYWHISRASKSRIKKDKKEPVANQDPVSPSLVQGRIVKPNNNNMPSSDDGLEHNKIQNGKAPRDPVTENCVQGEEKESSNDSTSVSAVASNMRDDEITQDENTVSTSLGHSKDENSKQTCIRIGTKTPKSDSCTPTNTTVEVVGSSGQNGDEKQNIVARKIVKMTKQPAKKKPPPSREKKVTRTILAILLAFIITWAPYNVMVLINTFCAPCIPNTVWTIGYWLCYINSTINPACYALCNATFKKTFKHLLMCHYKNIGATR
procedureSummary: Positive allosteric modulation of human muscarinic acetylcholine M2/Gqi5 receptor expressed in CHO cells in presence of acetylcholine at EC20 concentration by calcium mobilization assay
pEC50: −log10 of the molar value.
measuredQuantity: pEC50

compound="Cn1cc2c(-c3cc(F)c(CN4Cc5cnn(CC6CCCO6)c5C4=O)c(F)c3)cccc2n1 (configuration not stated)" measuredquantity=pEC50 result="< 5.00"

Next compound, please.
## Input Which pEC50 is reported for this compound? Cn1cc2cc(-c3ccc(CN4Cc5ncsc5C4=O)c(F)c3)ccc2n1
## Output < 5.00

----------
systemName: Muscarinic acetylcholine receptor M1 (Homo sapiens, UniProt P11229)
Sequence (P11229 whole entry): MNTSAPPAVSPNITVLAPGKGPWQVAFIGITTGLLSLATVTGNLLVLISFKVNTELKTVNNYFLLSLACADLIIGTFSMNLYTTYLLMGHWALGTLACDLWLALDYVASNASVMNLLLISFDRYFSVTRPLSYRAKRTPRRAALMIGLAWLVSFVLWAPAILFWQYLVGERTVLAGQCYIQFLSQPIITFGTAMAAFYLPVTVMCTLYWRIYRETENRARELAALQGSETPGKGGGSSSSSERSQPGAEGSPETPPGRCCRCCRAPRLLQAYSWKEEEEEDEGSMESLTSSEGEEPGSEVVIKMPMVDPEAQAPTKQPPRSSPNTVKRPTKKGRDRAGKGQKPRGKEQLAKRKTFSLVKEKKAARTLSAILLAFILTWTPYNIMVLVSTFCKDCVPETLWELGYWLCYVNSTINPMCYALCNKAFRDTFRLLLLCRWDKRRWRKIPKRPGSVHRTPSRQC
procedureSummary: Positive allosteric modulation of human muscarinic acetylcholine M1 receptor expressed in CHO cells in presence of acetylcholine at EC20 concentration by calcium mobilization assay
measuredQuantity: EC50 (nM)

Previously resolved entries follow.
compound=COCCn1ncc2c1C(=O)N(Cc1c(F)cc(-c3cccc4nn(C)cc34)cc1F)C2 recordednumber=3930
compound=Cn1cc2cc(-c3ccc(CN4Cc5ncsc5C4=O)c(F)c3)ccc2n1 recordednumber=2000
compound=Cn1cc2c(-c3cc(F)c(CN4Cc5cnn(CCN6CCCC6)c5C4=O)c(F)c3)cccc2n1 recordednumber=739
compound=Cn1cc2c(-c3cc(F)c(CN4Cc5cnn(CCO)c5C4=O)c(F)c3)cccc2n1 recordednumber=1510
compound="Cn1cc2c(-c3cc(F)c(CN4Cc5cnn(CC6CCCO6)c5C4=O)c(F)c3)cccc2n1 (stereo not given)" recordednumber=1120
compound="Cn1cc2cc(-c3cc(F)c(CN4Cc5cnn(CC6CCCO6)c5C4=O)c(F)c3)ccc2n1 (stereo not given)" recordednumber=1660

(1) Cn1cc2c(-c3cc(F)c(CN4Cc5ccsc5C4=O)c(F)c3)cccc2n1
(2) O=C1c2scnc2CN1Cc1c(F)cc(-c2ccc3ncccc3c2)cc1F
## Input Among 1 and 2 , which shows a numerically higher EC50 result? Please identify the chosen entry by its label.
## Output 2
(2: 8000 nM, 1: 2160 nM)
